- target-desc: human A2a receptor (Homo sapiens)
- Construct: purchased Perkin-Elmer RBHA2AM400UA; host or cells: HEK293
- Sequence (P29274 whole entry): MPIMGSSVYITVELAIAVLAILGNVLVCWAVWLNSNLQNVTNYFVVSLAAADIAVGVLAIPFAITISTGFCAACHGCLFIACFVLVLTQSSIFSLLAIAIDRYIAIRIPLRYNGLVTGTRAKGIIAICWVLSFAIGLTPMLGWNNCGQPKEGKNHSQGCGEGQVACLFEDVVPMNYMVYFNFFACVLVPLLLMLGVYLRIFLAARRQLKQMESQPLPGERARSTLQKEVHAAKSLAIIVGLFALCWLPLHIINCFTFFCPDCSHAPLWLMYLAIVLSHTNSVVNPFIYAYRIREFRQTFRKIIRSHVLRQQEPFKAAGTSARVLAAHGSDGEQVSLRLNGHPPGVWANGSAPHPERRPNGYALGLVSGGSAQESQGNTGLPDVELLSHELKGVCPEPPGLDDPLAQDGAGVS
- assay: A2a receptor competition binding assay (Scintillation Proximity, tritiated radioligand)
- run-parameters: membranes from HEK293 cells expressing the human A2a receptor; 0.5 nM tritiated ligand; SPA beads; one hour at room temperature; read-out: A2a EC50
pEC50: −log10 of the molar value.
value-type: pEC50

Prompt line: Quick one: give measured pEC50 for COc1cccc2c1nc(N)n1nc(CN3CCN(c4ccc(C(F)(F)F)c(C(F)(F)F)c4)CC3C)nc21 (stereo not shown) [Ex-117]
Response line: 7.90

(P) COc1cccc2c1nc(N)n1nc(CN3CCN(Cc4c(C)nc5scnn45)CC3C)nc21 (stereo not shown) [Ex-15]
(Q) COc1cccc2c1nc(N)n1nc(CN3CCN(c4ccc(F)cc4)CC3(C)C)nc21 [Ex-183]
Prompt line: Which value of pEC50 is smaller, the one for P or the one for Q ? Your answer should be the label of the entry you select.
Response line: P
(P: 8.09, Q: 8.30)
